Test system: native geph
procedure details: µSPOT peptide microarray binding assay with native geph from mouse brain lysate
condition details: µSPOT full positional scan of GlyRβ 15-mer DLRSNDFSIVGSLPR; native geph; intensity normalised to wild-type sequence (= 1)
reported property: Native geph Binding Intensity [norm.] (norm.)

# count of solved cases: 3
Item DLRSNDFSIVSSLPR [GlyRβ_Full_Positional_Scan_215, GlyR β 414-428 variant G424S] ; assay system native geph; Native geph Binding Intensity [norm.] reported as 0.2

Item DLRSNDFSIVCSLPR [GlyRβ_Full_Positional_Scan_217, GlyR β 414-428 variant G424C] ; assay system native geph; Native geph Binding Intensity [norm.] reported as 0.23

Item DLRSNDFSIVGSLPE [GlyRβ_Full_Positional_Scan_291] ; assay system native geph; Native geph Binding Intensity [norm.] reported as 0.49

P: DLRSNDFSIVGSLLR [GlyRβ_Full_Positional_Scan_264]
Q: DLRSNDFSIVGSLPP [GlyRβ_Full_Positional_Scan_285]
Hi there! Just curious which has the higher Native geph Binding Intensity [norm.] between P and Q . When you have decided, please share the label of that item.
Q
(Q: 1.08 norm., P: 0.32 norm.)

I: DLRSNDFSIVGWLPR [GlyRβ_Full_Positional_Scan_228]
II: DLRSNDFSIVGKLPR [GlyRβ_Full_Positional_Scan_234]
III: DLRSNDFSIVTSLPR [GlyRβ_Full_Positional_Scan_216, GlyR β 414-428 variant G424T]
IV: DLRSNDFSIVGSLPY [GlyRβ_Full_Positional_Scan_289]
Please put the entries in order of rising Native geph Binding Intensity [norm.]. Respond with the label ranking, as requested.
I, III, II, IV
(I: 0.19 norm., III: 0.28 norm., II: 0.47 norm., IV: 1.09 norm.)

I: DLRSNDFSIVGSLPD [GlyRβ_Full_Positional_Scan_290]
II: DLRSNDFSIVGSRPR [GlyRβ_Full_Positional_Scan_252]
Select one. Lower Native geph Binding Intensity [norm.]: I or II When you have decided, please share the label of that item.
II

###

Tested on: gephE
procedure details: µSPOT peptide microarray binding assay with recombinant gephE
condition details: µSPOT peptide microarray, GlyRβ full positional scan, recombinant gephE; intensity normalised to wild-type sequence DLRSNDFSIVGSLPR (=1)
reported property: gephE Binding Intensity [norm.] (norm.)

A: DLRWNDFSIVGSLPR [GlyRβ_Full_Positional_Scan_068]
B: DLRSNDFSFVGSLPR [GlyRβ_Full_Positional_Scan_167, GlyR β 414-428 variant I422F]
C: DLRSNDFSDVGSLPR [GlyRβ_Full_Positional_Scan_170, GlyR β 414-428 variant I422D]
Rank the listed sequences according to gephE Binding Intensity [norm.], from the largest value downward. Respond with the label ranking, as requested.
A, B, C
(A: 0.92 norm., B: 0.51 norm., C: 0.29 norm.)

###

Tested on: FL-geph
procedure details: µSPOT peptide microarray binding assay with full-length geph
condition details: µSPOT full positional scan of GlyRβ 15-mer DLRSNDFSIVGSLPR, intensity normalised to wild-type sequence (= 1)
reported property: Fl-geph Binding Intensity [norm.] (norm.)

# count of solved cases: 5
Item DLRSNDFSIVGPLPR [GlyRβ_Full_Positional_Scan_225] ; assay system FL-geph; Fl-geph Binding Intensity [norm.] reported as 0.7

Item DLRSNDFSIVGQLPR [GlyRβ_Full_Positional_Scan_240] ; assay system FL-geph; Fl-geph Binding Intensity [norm.] reported as 1.12

Item DLRSNDFSIVGHLPR [GlyRβ_Full_Positional_Scan_233] ; assay system FL-geph; Fl-geph Binding Intensity [norm.] reported as 1.01

Item DLRSNDFSIVGSLSR [GlyRβ_Full_Positional_Scan_275] ; assay system FL-geph; Fl-geph Binding Intensity [norm.] reported as 0.92

Item DLRSNDFSIVGSLPT [GlyRβ_Full_Positional_Scan_296] ; assay system FL-geph; Fl-geph Binding Intensity [norm.] reported as 1.37

I: DLRSNDFSIVGFLPR [GlyRβ_Full_Positional_Scan_227]
II: DLRSNDFSIVGSLPM [GlyRβ_Full_Positional_Scan_298]
Hi there! Just curious which has the higher Fl-geph Binding Intensity [norm.] between I and II . When you have decided, please share the label of that item.
II
(II: 1.34 norm., I: 0.88 norm.)

P: DLRSNDFSIVGSLWR [GlyRβ_Full_Positional_Scan_268]
Q: DLRSNDFSIVGSLPC [GlyRβ_Full_Positional_Scan_297]
Hi there! Just curious which has the higher Fl-geph Binding Intensity [norm.] between P and Q . When you have decided, please share the label of that item.
Q
(Q: 1.04 norm., P: 0.72 norm.)

a: DLRSNDFSIVGSCPR [GlyRβ_Full_Positional_Scan_257]
b: DLRSNDFSIVRSLPR [GlyRβ_Full_Positional_Scan_212, GlyR β 414-428 variant G424R]
Select one. Lower Fl-geph Binding Intensity [norm.]: a or b When you have decided, please share the label of that item.
b

The measured values listed here are drawn from paper PMC7753147.
